- Test system: choroidal neovascularization
- Test method notes: Choroidal neovascularization in rats (laser photocoagulation, FFA)
- Format: in vivo
- Settings: day 14 after administration, total light spot number was 137, 0.05 μM in the vitreous chamber once a day for 1 week, BN rats
Peptide text beside a SMILES is read from it. * marks the point of attachment. X68 = O=C1C=CC(=O)N1c1ccccc1CCCCCCCCCCCC(=O)*; X79 = O=C1C=CC(=O)N1c1cccc(CCC(=O)*)c1
Entries and their measured CNV Incidence (%) follow.
Give the value in % but do not write % after it.

{"Molecule": "C[C@H](NC(=O)CNC(=O)[C@H](CCCNC(=N)N)NC(=O)CCCCCCCCCCCc1ccccc1N1C(=O)C=CC1=O)C(=O)N[C@@H](CC(=O)O)C(=O)N[C@@H](CCCNC(=N)N)C(=O)N[C@@H](C)C(=O)NCC(=O)NCC(=O)NCC(=O)NCC(=O)N[C@@H](CCCNC(=N)N)C(=O)NCC(=O)N[C@@H](CC(=O)O)C(=O)O [X23] (X68-RGADRAGGGGRGD-OH)", "CNV Incidence (%)": 44.53}

Turning to the following molecule.
Data request: Report CNV Incidence (%) for C[C@H](NC(=O)CNC(=O)[C@H](CCCNC(=N)N)NC(=O)CCc1cccc(N2C(=O)C=CC2=O)c1)C(=O)N[C@@H](CC(=O)O)C(=O)N[C@@H](CCCNC(=N)N)C(=O)N[C@@H](C)C(=O)NCC(=O)NCC(=O)NCC(=O)NCC(=O)N[C@@H](CCCNC(=N)N)C(=O)NCC(=O)N[C@@H](CC(=O)O)C(=O)O [X26] (X79-RGADRAGGGGRGD-OH) please.
Data returned: 45.26
